- Test system: Human immunodeficiency virus 1
- EXPERIMENT NOTES: Antiviral activity against NNRTI-resistant HIV-1 harboring E138K mutant infected in human MT4 cells assessed as protection against virus-induced cytopathic effect incubated for 5 days by MTT assay
- Type: functional, organism-based
- CONDITION CONTEXT: Human immunodeficiency virus 1, MT4, 120 h
Response field label takes true (1) when EC50 is strictly below 50 nM and false (0) in all other cases.

A selection of reference data follows.
Ask | Problem: For the compound Cc1cc(/C=C/C#N)cc(C)c1Oc1nc(Nc2ccc(N3CCN(S(C)(=O)=O)CC3)c(C#N)c2)ncc1-c1cnc(N)nc1 , is EC50 under 50 nM?
Reply | true (1)

Ask | Is it true that EC50 reported for Cc1cc(/C=C/C#N)cc(C)c1Oc1nc(Nc2ccc(N3CCN(S(C)(=O)=O)CC3)c(F)c2)ncc1-c1cccnc1 is less than 50 nM?
Reply | false (0)

Ask | Could you please tell me whether EC50 recorded for Cc1cc(/C=C/C#N)cc(C)c1Oc1nc(Nc2ccc(N3CCN(S(C)(=O)=O)CC3)c(C#N)c2)ncc1-c1ccc(N)nc1 is less than 50 nM?
Reply | true (1)

---
Ask | Determine if Cc1ccnc2c1NC(=O)c1cccnc1N2C1CC1 shows EC50 strictly lower than 50 nM.
Reply | false (0)

Ask | Field: below-cutoff. Rule: recorded EC50 strictly less than 50 nM. Subject: Cc1cc(/C=C/C#N)cc(C)c1Oc1nc(Nc2ccc(N3CCN(S(C)(=O)=O)CC3)c(C#N)c2)ncc1-c1cccnc1
Reply | true (1)

Ask | I wonder whether Cc1cc(/C=C/C#N)cc(C)c1Oc1nc(Nc2ccc(N3CCS(=O)(=O)CC3)c(F)c2)ncc1-c1cccnc1 has EC50 below 50 nM. Can you tell?
Reply | false (0)

Ask | Lab note: EC50 threshold 50 nM. Does this compound come in strictly under it? Cc1cc(/C=C/C#N)cc(C)c1Oc1nc(Nc2ccc(N3CCS(=O)(=O)CC3)c(F)c2)ncc1-c1cncnc1
Reply | false (0)

Ask | Could you please tell me whether EC50 recorded for Cc1cc(C#N)cc(C)c1Oc1nc(Nc2ccc(C#N)cc2)nc(N)c1Br is less than 50 nM?
Reply | true (1)

Ask | For Cc1cc(/C=C/C#N)cc(C)c1Oc1nc(Nc2ccc(N3CCN(S(C)(=O)=O)CC3)c(F)c2)ncc1-c1ccc(N)nc1 , is the recorded EC50 below the cut-off of 50 nM?
Reply | true (1)

Ask | Does Cc1cc(/C=C/C#N)cc(C)c1Oc1nc(Nc2ccc(N3CCN(S(C)(=O)=O)CC3)c(F)c2)ncc1-c1cncnc1 have EC50 strictly under 50 nM?
Reply | false (0)

Ask | Field: below-cutoff. Rule: recorded EC50 strictly less than 50 nM. Subject: Cc1cc(/C=C/C#N)cc(C)c1Oc1nc(Nc2ccc(N3CCS(=O)(=O)CC3)c(F)c2)ncc1-c1cnc(F)nc1
Reply | false (0)

* * *

Measured IC50 by item
- TESTED TARGET: Human immunodeficiency virus type 1 reverse transcriptase (Human immunodeficiency virus 1, UniProt Q72547)
- EXPERIMENT NOTES: Inhibition of wild type HIV-1 reverse transcriptase assessed as reduction in biotin-dUTP incorporation in cDNA preincubated with compound for 1 hr in presence of biotin-labeled dNTPs by ELISA
Quick note: give the figure in nM, leave out the unit.

Sample answers from the record:
Ask | Tell me the measured IC50 of Cc1cc(/C=C/C#N)cc(C)c1Oc1nc(Nc2ccc(N3CCS(=O)(=O)CC3)c(F)c2)ncc1-c1cnc(F)nc1 , please.
Reply | 350

Ask | Entry Cc1cc(/C=C/C#N)cc(C)c1Oc1nc(Nc2ccc(N3CCN(S(C)(=O)=O)CC3)c(C#N)c2)ncc1-c1ccc(N)nc1 has what IC50?
Reply | 410

Ask | Give its IC50 value. Item: Cc1cc(/C=C/C#N)cc(C)c1Oc1nc(Nc2ccc(N3CCN(S(C)(=O)=O)CC3)c(C#N)c2)ncc1-c1cccnc1
Reply | 330

Ask | Tell me the measured IC50 of Cc1cc(/C=C/C#N)cc(C)c1Oc1nc(Nc2ccc(N3CCS(=O)(=O)CC3)c(C#N)c2)ncc1-c1cccnc1 , please.
Reply | 490

Ask | Dear colleague, I am looking for the recorded IC50 of the following molecule: Cc1cc(/C=C/C#N)cc(C)c1Oc1nc(Nc2ccc(N3CCN(S(C)(=O)=O)CC3)c(F)c2)ncc1-c1ccc(N)nc1
Reply | 270

---
Ask | Which IC50 value belongs to Cc1cc(/C=C/C#N)cc(C)c1Oc1nc(Nc2ccc(N3CCN(S(C)(=O)=O)CC3)c(F)c2)ncc1-c1cccnc1 ?
Reply | 630

Ask | Item Cc1cc(/C=C/C#N)cc(C)c1Oc1nc(Nc2ccc(N3CCS(=O)(=O)CC3)c(F)c2)ncc1-c1cncnc1 has what recorded IC50?
Reply | 200

Ask | Tell me the measured IC50 of Cc1cc(/C=C/C#N)cc(C)c1Oc1nc(Nc2ccc(N3CCN(S(C)(=O)=O)CC3)c(C#N)c2)ncc1-c1cncnc1 , please.
Reply | 290

Ask | Would you kindly share the measured IC50 for Cc1cc(/C=C/C#N)cc(C)c1Oc1nc(Nc2ccc(N3CCN(S(C)(=O)=O)CC3)c(F)c2)ncc1-c1cncnc1 ?
Reply | 490
